src = PubChem BioAssay (NCI)

Listed here are molecules together with their documented growth.
# Test system: SK-MEL-5 melanoma
# Test details: NCI-60 one-dose screen, 48 h (100 = growth as untreated, 0 = no growth, -100 = all killed)
# Experimental parameters: 10 µM unless noted
About 83,000 compounds went through this panel and 20% of them were active in at least one assay; those are over-represented in the sample as a whole.
Measurement label: growth (%)

1) CN(C)c1ccc(/C=C/C(=O)c2ccc(NC(N)=O)cc2)cc1 : 97.6
2) CC(=O)C1C(=O)C(=O)N(c2ccc(Cl)c(Cl)c2)C1=O (stereo unspecified) : 107
3) COc1ccc(/C=C\C(=O)/C=C/c2ccc(OC)cc2)cc1 : 91.7
4) C=C(c1ccc(N(C)C)cc1)c1ccc(N(C)C)cc1 : -0.97
5) CCOC(=O)CNC : 101
6) c1ccc2[nH]c(Cc3nc4ccccc4[nH]3)nc2c1 : 104
7) CCOc1ccc2c(c1)c(C)cc(C)[n+]2CC : 78.3
8) S=CN1CCCCC1 : 104
9) COc1ccc(/C=N/NC(=O)COCC(=O)N/N=C/c2ccc(OC)cc2)cc1 : 97.9
10) c1cc(CNCCNCc2ccncc2)ccn1 : 107
11) Cc1cccc(C)c1NC(=S)/N=C\c1c(O)[nH]c(=O)[nH]c1=O : 96.3
12) COc1cc(OC)c2cc(C(=O)c3ccc(C#N)cc3)c(=O)oc2c1 : 97.6
13) O=Cc1ccc(Cl)c(Cl)c1 : 110
14) CC(=O)c1cccc(O)c1 : 100
15) O=Cc1ccc(O)c(O)c1 : 95.3
16) C=C(C)COc1ccc(C(C)(C)C)cc1 : 104
17) CC(=O)NNC(=S)/N=C\C(C(=O)c1ccccc1)=C(/O)c1ccccc1 : 101
18) O=[N+]([O-])c1ccc2[nH]c(=S)n(/C=C(/c3ccc(Cl)cc3Cl)S(=O)(=O)Cc3ccc(Cl)cc3Cl)c2c1 : 101
19) O=c1cc(Cl)nc2ccccn12 : 105
20) CC(=O)N(C)N=Nc1ccc(C)cc1 : 103
21) O=S(=O)(O)c1cccnc1 : 103
